src = paper PMC12649408

Listing of recorded β-Turn, aqueous solution by entry.
Bridge positions count the residues as written; N and C are the ends. Ends that are not written are not given here.
Endpoint: β-Turn, aqueous solution (%)

[[record]]
substance = "H-RECKTESNTFPGICITKPPCRKACISEKFTDGHCSKIRRRCLCTKPC-OH (disulfide 3-47, 14-34, 20-41, 24-43)"
value_unit = "%"
endpoint_value = 21.2

[[record]]
substance = "RECKTESNTFPGICITKPPCRKACISEKFTDGHCRGFRRRCLCTKPC (disulfide 3-47, 14-34, 20-41, 24-43) [NaD1-L5]"
value_unit = "%"
endpoint_value = 24.3

[[record]]
substance = "RECKTESNTFPGICITKPPCRKACISEKFTDGHCSKILRRCLCTKPC (disulfide 3-47, 14-34, 20-41, 24-43) [NaD1]"
value_unit = "%"
endpoint_value = 21.3

[[record]]
substance = "H-RECKTESNTFPGICITKPPCRKACISEKFTDGHCSKIRRRCLCRRPC-OH (disulfide 3-47, 14-34, 20-41, 24-43)"
value_unit = "%"
endpoint_value = 22.7

[[record]]
substance = "H-RECKTESNTFPGICITKPPCRKACISEKFTDGHCSRIRRRCLCTKPC-OH (disulfide 3-47, 14-34, 20-41, 24-43)"
value_unit = "%"
endpoint_value = 22

[[record]]
substance = "H-RECKTESNTFPGICITKPPCRKACISEKFTDGHCSKILRRCLCRRPC-OH (disulfide 3-47, 14-34, 20-41, 24-43)"
value_unit = "%"
endpoint_value = 23.7

